// reported SODIUM for each item listed
Organism: Rattus norvegicus
Test: DrugMatrix - Regimen: Daily Repeat
Type: toxicity, organism-based, Sprague-Dawley
Set-up: regimen Daily Repeat, gender Male, age 6-8 weeks
Conditions: in vivo, iv, 0 mg/kg, 120 h, tissue Plasma, dose level Control, time 5 day, vehicle 100 % SALINE
measurement-kind: SODIUM (MEQ/L)

structure_as_smiles=CC[C@@]1(O)C(=O)OCc2c1cc1n(c2=O)Cc2cc3ccccc3nc2-1 unit_tag=MEQ/L numeric_readout=142.55
structure_as_smiles=CN(N=O)C(=O)N[C@@H](C=O)[C@@H](O)[C@H](O)[C@H](O)CO unit_tag=MEQ/L numeric_readout=143.57
structure_as_smiles=NCC[C@H](O)C(=O)N[C@@H]1C[C@H](N)[C@@H](O[C@H]2O[C@H](CN)[C@@H](O)[C@H](O)[C@H]2O)[C@H](O)[C@H]1O[C@H]1O[C@H](CO)[C@@H](O)[C@H](N)[C@H]1O unit_tag=MEQ/L numeric_readout=144.64
structure_as_smiles=CC1(C)S[C@@H]2[C@H](NC(=O)[C@H](NC(=O)N3CCNC3=O)c3ccccc3)C(=O)N2[C@H]1C(=O)O unit_tag=MEQ/L numeric_readout=143.02

* * *

Organism: Rattus norvegicus
Experiment: DrugMatrix - Regimen: Daily Repeat
Type: toxicity, organism-based, Sprague-Dawley
Parameters: regimen Daily Repeat, gender Male, age 6-8 weeks
Settings: in vivo, po, 10 mg/kg, 72 h, tissue Plasma, route oral GAVAGE, dose level Low, time 3 day, vehicle .5 % CMC
// reported CARBON DIOXIDE for each item listed
measurement-kind: CARBON DIOXIDE (mmol/L)

compound=O=C1CN=C(c2ccccc2)c2cc([N+](=O)[O-])ccc2N1 measurement_kind="CARBON DIOXIDE" numeric_readout=31
compound="NS(=O)(=O)c1cc2c(cc1Cl)NCNS2(=O)=O [HYDROCHLOROTHIAZIDE]" measurement_kind="CARBON DIOXIDE" numeric_readout=24.33
compound="COc1c(C)c2c(c(O)c1C/C=C(\\C)CCC(=O)OCCN1CCOCC1)C(=O)OC2 [MYCOPHENOLATE MOFETIL]" measurement_kind="CARBON DIOXIDE" numeric_readout=26.33
compound="CC(=O)O[C@]1(C(C)=O)CC[C@H]2[C@@H]3C=C(Cl)C4=CC(=O)CC[C@]4(C)[C@H]3CC[C@@]21C [CHLORMADINONE ACETATE]" measurement_kind="CARBON DIOXIDE" numeric_readout=33

* * *

// reported POTASSIUM for each item listed
Species: Rattus norvegicus
Test: DrugMatrix - Regimen: Daily Repeat
Assay type: toxicity, organism-based, Sprague-Dawley
Parameters: regimen Daily Repeat, gender Male, age 6-8 weeks
Conditions: in vivo, po, 0 mg/kg, 72 h, tissue Plasma, route oral GAVAGE, dose level Control, time 3 day, […]
measurement-kind: POTASSIUM

structure_as_smiles=CC(=O)[C@H]1CC[C@H]2[C@@H]3CCC4=CC(=O)CC[C@]4(C)[C@H]3CC[C@]12C measurement_kind=POTASSIUM result="5.56 MEQ/L"
structure_as_smiles=COCc1c(C(C)C)nc(C(C)C)c(/C=C/[C@@H](O)C[C@@H](O)CC(=O)O)c1-c1ccc(F)cc1 measurement_kind=POTASSIUM result="5.91 MEQ/L"
structure_as_smiles=Oc1c(Cl)cc(Cl)cc1Sc1cc(Cl)cc(Cl)c1O measurement_kind=POTASSIUM result="5.16 MEQ/L"
structure_as_smiles=Cn1cnc([N+](=O)[O-])c1Sc1ncnc2nc[nH]c12 measurement_kind=POTASSIUM result="5.79 MEQ/L"

* * *

Species on record: Rattus norvegicus
Assay: DrugMatrix - Regimen: Daily Repeat
Type: toxicity, organism-based, Sprague-Dawley
Set-up: regimen Daily Repeat, gender Male, age 6-8 weeks
Settings: in vivo, ip, 0 mg/kg, […], tissue Blood, route intraperitoneal, dose level Control, time 14 day, vehicle 100 % SALINE
// reported ABSOLUTE EOSINOPHIL for each item listed
measurement-kind: ABSOLUTE EOSINOPHIL (cells/µL)

substance="GOLD SODIUM THIOMALATE" measurement_kind="ABSOLUTE EOSINOPHIL" numeric_readout=140
substance=CARBOPLATIN measurement_kind="ABSOLUTE EOSINOPHIL" numeric_readout=140
substance=CISPLATIN measurement_kind="ABSOLUTE EOSINOPHIL" numeric_readout=140

* * *

Species on record: Rattus norvegicus
Assay: DrugMatrix - Regimen: Daily Repeat
Assay type: toxicity, organism-based, Sprague-Dawley
Parameters: regimen Daily Repeat, gender Male, age 6-8 weeks
Conditions: in vivo, iv, 0 mg/kg, 120 h, tissue Plasma, dose level Control, time 5 day, vehicle 100 % SALINE
measurement-kind: CHOLESTEROL

structure_as_smiles=CC[C@@]1(O)C(=O)OCc2c1cc1n(c2=O)Cc2cc3ccccc3nc2-1 result="64.83 mg/dL"
structure_as_smiles=CC1(C)S[C@@H]2[C@H](NC(=O)[C@H](NC(=O)N3CCNC3=O)c3ccccc3)C(=O)N2[C@H]1C(=O)O result="63.67 mg/dL"
structure_as_smiles=CN(N=O)C(=O)N[C@@H](C=O)[C@@H](O)[C@H](O)[C@H](O)CO result="66.83 mg/dL"
structure_as_smiles=NCC[C@H](O)C(=O)N[C@@H]1C[C@H](N)[C@@H](O[C@H]2O[C@H](CN)[C@@H](O)[C@H](O)[C@H]2O)[C@H](O)[C@H]1O[C@H]1O[C@H](CO)[C@@H](O)[C@H](N)[C@H]1O result="75.83 mg/dL"

* * *

// reported CARBON DIOXIDE for each item listed
Species: Rattus norvegicus
Assay: DrugMatrix - Regimen: Daily Repeat
Type: toxicity, organism-based, Sprague-Dawley
Design: regimen Daily Repeat, gender Male, age 6-8 weeks
Conditions: in vivo, po, 0 mg/kg, 72 h, tissue Plasma, route oral GAVAGE, dose level Control, time 3 day, vehicle 100 % WATER
measurement-kind: CARBON DIOXIDE (mmol/L)

compound="COc1ccc(C(CN(C)C)C2(O)CCCCC2)cc1 (stereo not given)" measurement_kind="CARBON DIOXIDE" numeric_readout=25.67
compound=NCC1(CC(=O)O)CCCCC1 measurement_kind="CARBON DIOXIDE" numeric_readout=26.83
compound=NC(=O)c1ncn([C@@H]2O[C@H](CO)[C@@H](O)[C@H]2O)n1 measurement_kind="CARBON DIOXIDE" numeric_readout=24.83
compound=CNCCC=C1c2ccccc2CCc2ccccc21 measurement_kind="CARBON DIOXIDE" numeric_readout=28.67
compound=CN1CCC[C@H]1c1cccnc1 measurement_kind="CARBON DIOXIDE" numeric_readout=22.83
compound=Fc1ccc([C@@H]2CCNC[C@H]2COc2ccc3c(c2)OCO3)cc1 measurement_kind="CARBON DIOXIDE" numeric_readout=34.17
compound="Clc1ccc(C(c2ccccc2Cl)C(Cl)Cl)cc1 (stereo not given)" measurement_kind="CARBON DIOXIDE" numeric_readout=31.83
compound="CN1CCN(C(=O)OC2c3nccnc3C(=O)N2c2ccc(Cl)cn2)CC1 (stereo not given)" measurement_kind="CARBON DIOXIDE" numeric_readout=24.17
compound="COc1cccc(C2(O)CCCCC2CN(C)C)c1 (stereo not given)" measurement_kind="CARBON DIOXIDE" numeric_readout=34.17
compound="CC1COc2c(N3CCN(C)CC3)c(F)cc3c(=O)c(C(=O)O)cn1c23 (stereo not given)" measurement_kind="CARBON DIOXIDE" numeric_readout=22.83
compound=O=C1NC(=O)C(c2ccccc2)(c2ccccc2)N1 measurement_kind="CARBON DIOXIDE" numeric_readout=28.67
compound="CC(CCc1ccccc1)NCC(O)c1ccc(O)c(C(N)=O)c1 (stereo not given)" measurement_kind="CARBON DIOXIDE" numeric_readout=31.33
compound=Cn1cnc([N+](=O)[O-])c1Sc1ncnc2nc[nH]c12 measurement_kind="CARBON DIOXIDE" numeric_readout=30.33
compound=COc1cc2c(N3CCN(C(=O)Nc4ccc(OC(C)C)cc4)CC3)ncnc2cc1OCCCN1CCCCC1 measurement_kind="CARBON DIOXIDE" numeric_readout=37.33
compound=CC(C)(S)[C@@H](N)C(=O)O measurement_kind="CARBON DIOXIDE" numeric_readout=31

* * *

Species: Rattus norvegicus
Test: DrugMatrix - Regimen: Daily Repeat
Assay type: toxicity, organism-based, Sprague-Dawley
Set-up: regimen Daily Repeat, gender Male, age 6-8 weeks
Conditions: in vivo, iv, 0 mg/kg, 120 h, tissue Plasma, dose level Control, time 5 day, vehicle 100 % SALINE
measurement-kind: CREATININE (mg/dL)

structure_as_smiles=CC1(C)S[C@@H]2[C@H](NC(=O)[C@H](NC(=O)N3CCNC3=O)c3ccccc3)C(=O)N2[C@H]1C(=O)O measurement_kind=CREATININE unit_tag=mg/dL numeric_readout=0.18
structure_as_smiles=CC[C@@]1(O)C(=O)OCc2c1cc1n(c2=O)Cc2cc3ccccc3nc2-1 measurement_kind=CREATININE unit_tag=mg/dL numeric_readout=0.2
structure_as_smiles=NCC[C@H](O)C(=O)N[C@@H]1C[C@H](N)[C@@H](O[C@H]2O[C@H](CN)[C@@H](O)[C@H](O)[C@H]2O)[C@H](O)[C@H]1O[C@H]1O[C@H](CO)[C@@H](O)[C@H](N)[C@H]1O measurement_kind=CREATININE unit_tag=mg/dL numeric_readout=0.21
structure_as_smiles=CN(N=O)C(=O)N[C@@H](C=O)[C@@H](O)[C@H](O)[C@H](O)CO measurement_kind=CREATININE unit_tag=mg/dL numeric_readout=0.23
